# Test system: Candida albicans
# TEST PROTOCOL: Antifungal activity against Candida albicans MTCC 183 after 24 to 48 hrs by agar diffusion method
# Format: functional
# CONDITIONS: Candida albicans, MTCC 183
PROPERTY LABEL: MIC (µg/mL)
Dear colleague, please return just the value in µg/mL, with no unit written.

Consider the worked cases shown below.
MOLECULE	TARGET SYSTEM	UOM	MIC
CCCCc1nc(Cl)c(C2CC(c3cc(C)ccc3O)=NN2c2nc(-c3ccc(Cl)cc3)cs2)[nH]1 (stereo unspecified)	Candida albicans	µg/mL	50
CCCCc1nc(Cl)c(C2CC(c3ccc(OC)cc3)=NN2c2nc(-c3ccc(Cl)cc3)cs2)[nH]1 (stereo unspecified)	Candida albicans	µg/mL	25

So for CCCCc1nc(Cl)c(C2CC(c3cc(Cl)c(C)c(I)c3O)=NN2c2nc(-c3ccc(Cl)cc3)cs2)[nH]1 (stereo unspecified) , the logged MIC turned out to be 25

So for CCCCc1nc(Cl)c(C2CC(c3cc(C)cc(Br)c3O)=NN2c2nc(-c3ccc(Cl)cc3)cs2)[nH]1 (stereo unspecified) , the logged MIC turned out to be 25

So for CCCCc1nc(Cl)c(C2CC(c3cc(C)cc(I)c3O)=NN2c2nc(-c3ccc(Cl)cc3)cs2)[nH]1 (stereo unspecified) , the logged MIC turned out to be 50

###

# Tested on: Staphylococcus aureus
# TEST PROTOCOL: Antibacterial activity against Staphylococcus aureus MTCC 96 after 24 hrs by agar diffusion method; note: test concentration or dose not given here
# Assay type: functional
inhibition zone (IZ) for assorted compounds
Dear colleague, please return just the value in mm, with no unit written.

Consider the worked cases shown below.
COMPOUND	PROPERTY LABEL	ENDPOINT VALUE
CCCCc1nc(Cl)c(C2CC(c3cc(C)cc(I)c3O)=NN2c2nc(-c3ccc(Cl)cc3)cs2)[nH]1 (centres undefined)	inhibition zone (IZ)	15
CCCCc1nc(Cl)c(C2CC(c3cc(Cl)cc(I)c3O)=NN2c2nc(-c3ccc(Cl)cc3)cs2)[nH]1 (centres undefined)	inhibition zone (IZ)	18
CCCCc1nc(Cl)c(C2CC(c3cc(Cl)c(C)cc3O)=NN2c2nc(-c3ccc(Cl)cc3)cs2)[nH]1 (centres undefined)	inhibition zone (IZ)	12

Next, consider the following compound.
So for CCCCc1nc(Cl)c(C2CC(c3cc(Cl)ccc3O)=NN2c2nc(-c3ccc(Cl)cc3)cs2)[nH]1 (centres undefined) , the logged inhibition zone (IZ) turned out to be 16

###

# Tested on: Staphylococcus aureus
# TEST PROTOCOL: Antibacterial activity against Staphylococcus aureus MTCC 96 after 24 hrs by agar diffusion method; note: test concentration or dose not given here
# Type: functional
PROPERTY LABEL: inhibition zone (IZ)

So for CCCCc1nc(Cl)c(C2CC(c3ccc(N)cc3)=NN2c2nc(-c3ccc(Cl)cc3)cs2)[nH]1 (centres undefined) , the logged inhibition zone (IZ) turned out to be 10 mm

So for CN(C)[C@@H]1C(O)=C(C(N)=O)C(=O)[C@@]2(O)C(O)=C3C(=O)c4c(O)cccc4[C@@](C)(O)[C@H]3C[C@@H]12 , the logged inhibition zone (IZ) turned out to be 30 mm

So for CCCCc1nc(Cl)c(C2CC(c3ccccc3O)=NN2c2nc(-c3ccc(Cl)cc3)cs2)[nH]1 (centres undefined) , the logged inhibition zone (IZ) turned out to be 13 mm

So for CCCCc1nc(Cl)c(C2CC(c3ccc(OC)cc3)=NN2c2nc(-c3ccc(Cl)cc3)cs2)[nH]1 (centres undefined) , the logged inhibition zone (IZ) turned out to be 18 mm

The measured values listed here are drawn from ChEMBL document CHEMBL1156256.
